All values here come from the supplement of paper PMC6757056.

B1: library; a variant is named by its letters at N, in order (parent)
chain: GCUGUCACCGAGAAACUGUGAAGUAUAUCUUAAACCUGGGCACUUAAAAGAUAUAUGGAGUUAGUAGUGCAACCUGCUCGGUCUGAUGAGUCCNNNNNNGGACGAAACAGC

Variants of: B1
METHOD DESCRIPTION: normalized RNA/DNA level without ligand (relative to sTRSVctl = 100) (log10 (% of sTRSVctl)); HEK293T; ligand: cyclic di-GMP (c-di-GMP-II aptamer); higher = less ribozyme self-cleavage, higher mRNA level
TEST PARAMETERS: reporter: mCherry (pCS4076), ligand present: no
PROPERTY MEASURED: normalized RNA/DNA level without ligand (log10)
Returns: the value as a bare number; no unit string appended.

Here are 10 variants together with their reported answers.
INPUT SEQUENCE: GCUGUCACCGAGAAACUGUGAAGUAUAUCUUAAACCUGGGCACUUAAAAGAUAUAUGGAGUUAGUAGUGCAACCUGCUCGGUCUGAUGAGUCCCCUCUAGGACGAAACAGC [CCUCUA]
OBSERVED VALUE: 1.43
//
INPUT SEQUENCE: GCUGUCACCGAGAAACUGUGAAGUAUAUCUUAAACCUGGGCACUUAAAAGAUAUAUGGAGUUAGUAGUGCAACCUGCUCGGUCUGAUGAGUCCAGCCUGGGACGAAACAGC [AGCCUG]
OBSERVED VALUE: 1.66
//
INPUT SEQUENCE: GCUGUCACCGAGAAACUGUGAAGUAUAUCUUAAACCUGGGCACUUAAAAGAUAUAUGGAGUUAGUAGUGCAACCUGCUCGGUCUGAUGAGUCCACCAAGGGACGAAACAGC [ACCAAG]
OBSERVED VALUE: 1.54
//
INPUT SEQUENCE: GCUGUCACCGAGAAACUGUGAAGUAUAUCUUAAACCUGGGCACUUAAAAGAUAUAUGGAGUUAGUAGUGCAACCUGCUCGGUCUGAUGAGUCCGUCUGGGGACGAAACAGC [GUCUGG]
OBSERVED VALUE: 1.68
//
INPUT SEQUENCE: GCUGUCACCGAGAAACUGUGAAGUAUAUCUUAAACCUGGGCACUUAAAAGAUAUAUGGAGUUAGUAGUGCAACCUGCUCGGUCUGAUGAGUCCACCGAAGGACGAAACAGC [ACCGAA]
OBSERVED VALUE: 1.44
//
INPUT SEQUENCE: GCUGUCACCGAGAAACUGUGAAGUAUAUCUUAAACCUGGGCACUUAAAAGAUAUAUGGAGUUAGUAGUGCAACCUGCUCGGUCUGAUGAGUCCGGCAGAGGACGAAACAGC [GGCAGA]
OBSERVED VALUE: 1.64
//
INPUT SEQUENCE: GCUGUCACCGAGAAACUGUGAAGUAUAUCUUAAACCUGGGCACUUAAAAGAUAUAUGGAGUUAGUAGUGCAACCUGCUCGGUCUGAUGAGUCCUGACCUGGACGAAACAGC [UGACCU]
OBSERVED VALUE: 1.72
//
INPUT SEQUENCE: GCUGUCACCGAGAAACUGUGAAGUAUAUCUUAAACCUGGGCACUUAAAAGAUAUAUGGAGUUAGUAGUGCAACCUGCUCGGUCUGAUGAGUCCGUGCCUGGACGAAACAGC [GUGCCU]
OBSERVED VALUE: 1.81
//
INPUT SEQUENCE: GCUGUCACCGAGAAACUGUGAAGUAUAUCUUAAACCUGGGCACUUAAAAGAUAUAUGGAGUUAGUAGUGCAACCUGCUCGGUCUGAUGAGUCCAUCCACGGACGAAACAGC [AUCCAC]
OBSERVED VALUE: 1.72
//
INPUT SEQUENCE: GCUGUCACCGAGAAACUGUGAAGUAUAUCUUAAACCUGGGCACUUAAAAGAUAUAUGGAGUUAGUAGUGCAACCUGCUCGGUCUGAUGAGUCCGAUAGAGGACGAAACAGC [GAUAGA]
OBSERVED VALUE: 1.46

Inquiry: Endpoint output: normalized RNA/DNA level without ligand (log10) of GCUGUCACCGAGAAACUGUGAAGUAUAUCUUAAACCUGGGCACUUAAAAGAUAUAUGGAGUUAGUAGUGCAACCUGCUCGGUCUGAUGAGUCCCCUACGGGACGAAACAGC [CCUACG] . Value?
Reply text: 1.7

Inquiry: Endpoint output: normalized RNA/DNA level without ligand (log10) of GCUGUCACCGAGAAACUGUGAAGUAUAUCUUAAACCUGGGCACUUAAAAGAUAUAUGGAGUUAGUAGUGCAACCUGCUCGGUCUGAUGAGUCCAUCGUGGGACGAAACAGC [AUCGUG] . Value?
Reply text: 1.59

Inquiry: Endpoint output: normalized RNA/DNA level without ligand (log10) of GCUGUCACCGAGAAACUGUGAAGUAUAUCUUAAACCUGGGCACUUAAAAGAUAUAUGGAGUUAGUAGUGCAACCUGCUCGGUCUGAUGAGUCCACUGGUGGACGAAACAGC [ACUGGU] . Value?
Reply text: 1.52

Inquiry: Endpoint output: normalized RNA/DNA level without ligand (log10) of GCUGUCACCGAGAAACUGUGAAGUAUAUCUUAAACCUGGGCACUUAAAAGAUAUAUGGAGUUAGUAGUGCAACCUGCUCGGUCUGAUGAGUCCGCGUGCGGACGAAACAGC [GCGUGC] . Value?
Reply text: 1.68

Inquiry: Endpoint output: normalized RNA/DNA level without ligand (log10) of GCUGUCACCGAGAAACUGUGAAGUAUAUCUUAAACCUGGGCACUUAAAAGAUAUAUGGAGUUAGUAGUGCAACCUGCUCGGUCUGAUGAGUCCGUUACAGGACGAAACAGC [GUUACA] . Value?
Reply text: 1.66
